# tgt: NA transporter (Rattus norvegicus, UniProt Q63380)
# Construct: from tissue; host or cells: rat brain synaptosomes (P2 fraction) from hypothalamus
# Sequence (Q63380 1-617): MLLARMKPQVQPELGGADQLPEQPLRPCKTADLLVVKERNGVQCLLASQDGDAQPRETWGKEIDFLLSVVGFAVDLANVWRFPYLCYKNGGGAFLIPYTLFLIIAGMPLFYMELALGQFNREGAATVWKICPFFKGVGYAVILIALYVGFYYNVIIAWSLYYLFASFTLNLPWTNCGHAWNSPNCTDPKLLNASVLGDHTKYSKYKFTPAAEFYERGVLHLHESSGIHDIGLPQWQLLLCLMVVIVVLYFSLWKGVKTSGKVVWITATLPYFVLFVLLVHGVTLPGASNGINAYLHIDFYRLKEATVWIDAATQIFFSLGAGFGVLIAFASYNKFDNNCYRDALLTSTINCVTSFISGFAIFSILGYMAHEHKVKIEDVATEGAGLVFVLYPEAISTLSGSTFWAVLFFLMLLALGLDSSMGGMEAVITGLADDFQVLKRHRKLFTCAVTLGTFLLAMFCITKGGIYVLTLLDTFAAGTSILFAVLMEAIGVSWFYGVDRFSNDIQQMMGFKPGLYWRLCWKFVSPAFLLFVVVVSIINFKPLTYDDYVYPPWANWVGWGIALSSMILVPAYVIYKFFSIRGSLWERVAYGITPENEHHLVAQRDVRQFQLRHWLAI
# protocolNotes: Inhibition of noradrenaline uptake in rat brain synaptosomes
# Type: biochemical
# experimentalSetup: 10 μM; rat synaptosomes (hypothalamus), [3H]-NA; read-out: % Inhibition of NA uptake [10 μM]
quantityMeasured: inhibition at 10 µM

inhibition at 10 µM of CC(C)(C)CC(=O)Nc1nc2c(s1)CCCC2C(=O)N1CCN(Cc2ccccc2)CC1 (stereo not shown) on NA transporter (Rattus norvegicus, UniProt Q63380)?
64%

NA transporter (Rattus norvegicus, UniProt Q63380) / inhibition at 10 µM / COc1ccc2ccccc2c1CN1CCN(C(=O)C2CCCc3sc(NC(=O)CC(C)(C)C)nc32)CC1 (stereo not shown) : value?
71%

Form field - read-out: inhibition at 10 µM; system: NA transporter (Rattus norvegicus, UniProt Q63380); submitted item: O=C(C=Cc1ccco1)Nc1nc2c(s1)CCCC2C(=O)N1CCN(Cc2ccsc2)CC1 (stereo not shown)
57%

Lab note: need inhibition at 10 µM with NA transporter (Rattus norvegicus, UniProt Q63380) for entry O=C(CC1CCCCC1)Nc1nc2c(s1)CCCC2C(=O)NCC1CCN(Cc2c(F)cccc2Cl)C1 (stereo not shown) , please look it up.
41%

Kindly state the measured inhibition at 10 µM obtained for O=C(CCc1ccccc1)Nc1nc2c(s1)CCCC2C(=O)NCC1CCN(Cc2cc3ccccc3o2)C1 (stereo not shown) with NA transporter (Rattus norvegicus, UniProt Q63380).
67%

###

The entries below come with measured % Inhibition of NA uptake [10 μM] values attached.
# tgt: NA transporter (Rattus norvegicus, UniProt Q63380)
# Construct: from tissue; host or cells: rat brain synaptosomes (P2 fraction) from hypothalamus
# protocolNotes: Inhibition of noradrenaline uptake in rat brain synaptosomes
# Format: biochemical
# experimentalSetup: 10 μM; rat synaptosomes (hypothalamus), [3H]-NA
Hi! Could you send only the number? It should be in %, unit omitted.

Recorded % Inhibition of NA uptake [10 μM], per entry:
1. COc1cc(Br)c(CN2CCC(NC(=O)C3CCCc4sc(NC(=O)C(C)c5ccccc5)nc43)C2)cc1OC (stereo not shown) [Example 33]: 79
2. O=C(Nc1nc2c(s1)CCCC2C(=O)N1CCN(c2ccccn2)CC1)c1ccoc1 (stereo not shown) [Example 64]: 53
3. CCCCCC(=O)Nc1nc2c(s1)CCCC2C(=O)N1CCN(c2ccccc2F)CC1 (stereo not shown) [Example 52]: 72

Okay, now this compound:
Report % Inhibition of NA uptake [10 μM] for CCCCCC(=O)Nc1nc2c(s1)CCCC2C(=O)NCCCN1CCCCC1C (stereo not shown) [Example 18] please.
43

###

# tgt: NA transporter (Rattus norvegicus)
# Construct: from tissue; host or cells: rat brain synaptosomes (P2 fraction) from hypothalamus
# protocolNotes: Inhibition of noradrenaline uptake in rat brain synaptosomes
# Type: biochemical
# experimentalSetup: 10 μM; rat synaptosomes (hypothalamus), [3H]-NA; read-out: % Inhibition of NA uptake [10 μM]
quantityMeasured: inhibition at 10 µM (%)
Unit % implied. Number only.

1. O=C(CCc1ccccc1)Nc1nc2c(s1)CCCC2C(=O)NCC1CCN(Cc2ccc(-c3ccccc3)cc2)C1 (stereo not shown): 44
2. CCCC(=O)Nc1nc2c(s1)CCCC2C(=O)N1CCN(Cc2cc3ccccc3o2)CC1 (stereo not shown): 47

Quick one: inhibition at 10 µM of CCN(CC)CCNC(=O)C1CCCc2sc(NC(=O)CCc3ccccc3)nc21 (stereo not shown) ?
42

Which value of inhibition at 10 µM has been reported for CC(C)(C)CC(=O)Nc1nc2c(s1)CCCC2C(=O)N1CCN(CC=Cc2ccccc2)CC1 (stereo not shown) in the records?
46

The origin of these recorded values is patent US7348347B2.
